These entries and their values trace back to paper PMC6384738.

System: P. aeruginosa ATTC 27853
assayProcedure: microbe, parasite or virus in culture
assayContext: ATTC 27853, 18 h
Where a SMILES comes first, the peptide text is derived from it. Bridges are numbered along the chain shown (N, C = ends). [ ]: non-standard residue; d: D form. The star is where a group is joined. Octanoyl = CCCCCCCC(=O)*; Dab = NCC[C@H](N)C(=O)O
measure: MIC P. aeruginosa ATTC 27853 (µg/mL)

>>> measuredresult("CCCCCCCC(=O)N[C@H](C(=O)N[C@@H](CCN)C(=O)N[C@H]1CCCCNC(=O)[C@H]([C@@H](C)O)NC(=O)[C@H](CCN)NC(=O)[C@H](CCN)NC(=O)[C@H](CC(C)C)NC(=O)[C@@H](Cc2ccccc2)NC(=O)[C@H](CCN)NC1=O)[C@@H](C)O [Compound 18] (Octanoyl-T[Dab]K[Dab][dF]L[Dab][Dab]T; lactam 3-C)")
16

* * *

Known MIC P. aeruginosa ATTC 27853 of a selection of compounds
Test system: P. aeruginosa ATTC 27853
assayProcedure: microbe, parasite or virus in culture
assayContext: ATTC 27853, 18 h
Where a SMILES comes first, the peptide text is derived from it. Bridges are numbered along the chain shown (N, C = ends). [ ]: non-standard residue; d: D form. The star is where a group is joined. Benzoyl(3-Ph) = O=C(c1cccc(-c2ccccc2)c1)*; Butanoyl(4-OPh) = O=C(CCCOc1ccccc1)*; Hexanoyl(6-Ph) = O=C(CCCCCc1ccccc1)*; dDab = NCC[C@@H](N)C(=O)O; Octanoyl = CCCCCCCC(=O)*; Dab = NCC[C@H](N)C(=O)O
measure: MIC P. aeruginosa ATTC 27853 (µg/mL)

>>> measuredresult("CC(C)C[C@@H]1NC(=O)[C@@H](Cc2ccccc2)NC(=O)[C@H](CCN)NC(=O)[C@@H](NC(=O)[C@@H](CCN)NC(=O)[C@@H](NC(=O)c2cccc(-c3ccccc3)c2)[C@@H](C)O)CCNC(=O)[C@H]([C@@H](C)O)NC(=O)[C@H](CCN)NC(=O)[C@H](CCN)NC1=O [Compound 27] ({Benzoyl(3-Ph)}-T[dDab][Dab][Dab][dF]L[Dab][Dab]T; lactam 3-C)")
2
>>> measuredresult("CCCCCCCC(=O)N[C@@H](CO)C(=O)N[C@H](CCN)C(=O)N[C@H]1CCNC(=O)[C@H]([C@@H](C)O)NC(=O)[C@H](CCN)NC(=O)[C@H](CCN)NC(=O)[C@H](CC(C)C)NC(=O)[C@@H](Cc2ccccc2)NC(=O)[C@H](CCN)NC1=O [Compound 30] (Octanoyl-S[dDab][Dab][Dab][dF]L[Dab][Dab]T; lactam 3-C)")
1
>>> measuredresult("CC(C)C[C@@H]1NC(=O)[C@@H](Cc2ccccc2)NC(=O)[C@H](CCN)NC(=O)[C@@H](NC(=O)[C@@H](CCN)NC(=O)[C@@H](NC(=O)CCCOc2ccccc2)[C@@H](C)O)CCNC(=O)[C@H]([C@@H](C)O)NC(=O)[C@H](CCN)NC(=O)[C@H](CCN)NC1=O [Compound 26] ({Butanoyl(4-OPh)}-T[dDab][Dab][Dab][dF]L[Dab][Dab]T; lactam 3-C)")
2
>>> measuredresult("CCCCCCCC(=O)NCC(=O)N[C@H](CCN)C(=O)N[C@H]1CCNC(=O)[C@H]([C@@H](C)O)NC(=O)[C@H](CCN)NC(=O)[C@H](CCN)NC(=O)[C@H](CC(C)C)NC(=O)[C@@H](Cc2ccccc2)NC(=O)[C@H](CCN)NC1=O [Compound 33] (Octanoyl-G[dDab][Dab][Dab][dF]L[Dab][Dab]T; lactam 3-C)")
1
>>> measuredresult("CC(C)C[C@@H]1NC(=O)[C@@H](Cc2ccccc2)NC(=O)[C@H](CCN)NC(=O)[C@@H](NC(=O)[C@H](CCN)NC(=O)[C@@H](NC(=O)CCCCCc2ccccc2)[C@@H](C)O)CCNC(=O)[C@H]([C@@H](C)O)NC(=O)[C@H](CCN)NC(=O)[C@H](CCN)NC1=O [Compound 13] ({Hexanoyl(6-Ph)}-T[Dab][Dab][Dab][dF]L[Dab][Dab]T; lactam 3-C)")
1
